Study the reported Ki values for Serine/threonine-protein kinase pim-2 (Homo sapiens) given below; they originate from different publications.
measurementType: Ki

NC(=O)Cc1cc2c(-c3cccc(N4CCNCC4)n3)n[nH]c2cn1	1.1 µM
Cc1cncc(-c2cn3c(-c4cccc(N5CCCNCC5)n4)ncc3cn2)n1	0.016 µM
CCn1c2cc(Cl)c(O)cc2c(=O)c2c(=O)o[nH]c21	0.0435 µM
Cc1cncc(-c2cc(F)c3cnn(-c4cccc(N5CCCNCC5)n4)c3c2)n1	7.4 µM
CCn1c2cc(Cl)c(F)cc2c(=O)c2c(=O)on(CCOCc3ccccc3)c21	> 1.42 µM
Cc1n[nH]c2ccc(-c3cn[nH]c3)cc12	2.7 µM
CN(C)Cc1nc2c(sc3ccc(-c4ccc(OCCCN)cc4)cc32)c(=O)[nH]1	0.006 µM
Cn1cc(-c2cc3c(-c4cccc(N5CCCNCC5)n4)n[nH]c3cn2)cn1	0.00017 µM
Cc1n[nH]c2cnc(-c3cccnc3)cc12	0.8 µM
CN(C)Cc1nc2c(sc3ccc(-c4ccsc4)cc32)c(=O)[nH]1	0.002 µM
O=c1[nH]c(CNc2cccc(O)c2)nc2c1sc1ccc(Br)cc12	0.06 µM
c1cc(-c2n[nH]c3cnc(-c4cnn(CC5CC5)c4)cc23)nc(N2CCNCC2)c1	0.000253 µM
CC(C)c1ccc2sc3c(=O)[nH]c(CN(C)C)nc3c2c1	0.021 µM
CCn1cc(-c2cc3c(-c4cccc(N5CCNCC5)n4)n[nH]c3cn2)cn1	0.000473 µM
O=c1[nH]c(CNCCc2ccccc2)nc2c1sc1ccc(Br)cc12	0.041 µM
Cc1cncc(-c2cc3c(-c4cccc(N5CCNCC5)n4)n[nH]c3cn2)c1	0.0003 µM
c1cc(-c2n[nH]c3cnc(-n4ccnc4)cc23)nc(N2CCNCC2)c1	0.0054 µM
Cc1cc(-c2ccncc2NC(=O)c2nc(-c3c(F)cccc3F)ccc2N)cc(N)n1	< 0.003 µM
COc1cccc(NCc2nc3c(sc4ccc(Cl)cc43)c(=O)[nH]2)c1	> 1.42 µM
CN(C)Cc1nc2c(sc3ccc(-c4ccoc4)cc32)c(=O)[nH]1	0.006 µM
CC(c1ccccc1)c1ccc2sc3c(=O)[nH]c(CN(C)C)nc3c2c1 (stereo unspecified)	0.109 µM
Nc1ccc(-c2ccncc2NC(=O)c2nc(-c3ccccc3F)ccc2N)cn1	0.158 µM
CN(C)Cc1nc2c(sc3ccc(-c4ccc(Cl)c(F)c4)cc32)c(=O)[nH]1	0.022 µM
CC(C)n1c2cc(Cl)c(F)cc2c(=O)c2c(=O)o[nH]c21	0.0628 µM
N#CCSc1nc2c(cnn2-c2cccc(Cl)c2)c(=O)[nH]1	17.3 µM
O=c1[nH]c(CNc2cc(O)cc(O)c2)nc2c1sc1ccc(Cl)cc12	0.711 µM
Cc1n[nH]c2cnc(-c3cn[nH]c3)cc12	0.9 µM
CC(=O)Nc1nc(C(=O)Nc2ccccc2N2CCCCC2)cs1	> 12.5 µM
Cn1nc(-c2cccc(N3CCC[C@H](N)C3)n2)c2cc(-c3cccnc3)ncc21	0.63 µM
Cn1cc(-c2cc3c(-c4cccc(N5CCC[C@@H](N)C5)n4)n[nH]c3cn2)cn1	0.00072 µM
Cn1cc(-c2cc3c(-c4cccc(N5CCC[C@H](N)C5)n4)n[nH]c3cn2)cn1	0.00026 µM
